Below: a set of entries, each annotated with reported binding signal.
Molecular target: T1, RBFOX1 RRM (Homo sapiens, UniProt Q9NWB1 109-208)
T1 sequence: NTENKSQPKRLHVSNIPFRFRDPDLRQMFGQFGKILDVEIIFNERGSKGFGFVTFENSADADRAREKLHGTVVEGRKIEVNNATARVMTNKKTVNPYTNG
Experiment: EMSA; HiTS-Eq, 1 nM pool, 10 min; buffer printed only for the single-RNA assays: 10 mM Tris pH 7.5, 150 mM NaCl, 3.4 mM EDTA, 0.001% NP-40, 30 C
Conditions: tags: His6 N-terminal (pET28a); label: 5' 32P
Over roughly 16,000 sequences, “ka relative to ugcaugu” has its median near 0.0091; the highest 2% begin near 0.032. Shown is part of a subset that was picked to be rich in the highest values.

Solved cases (3 shown):
Binder	Measurement Type	Result
GGCUAGU (DNA:RNA) RNA: GGGAGACCGGAAUUCAGAUUGUCCGGCUAGUUUAAAUCCCGUCGUAGCCACCA DNA 1: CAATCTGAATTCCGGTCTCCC DNA 2: TGGTGGCTACGACGGGATT	binding signal	0.0239 KA relative to UGCAUGU
CCAAUGG (DNA:RNA) RNA: GGGAGACCGGAAUUCAGAUUGUCCCCAAUGGUUAAAUCCCGUCGUAGCCACCA DNA 1: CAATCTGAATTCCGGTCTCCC DNA 2: TGGTGGCTACGACGGGATT	binding signal	0.00975 KA relative to UGCAUGU
GGGGGGC (DNA:RNA) RNA: GGGAGACCGGAAUUCAGAUUGUCCGGGGGGCUUAAAUCCCGUCGUAGCCACCA DNA 1: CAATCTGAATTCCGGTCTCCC DNA 2: TGGTGGCTACGACGGGATT	binding signal	0.0272 KA relative to UGCAUGU

Next binder, please.
Tell me the measured binding signal of GGGCUUG (DNA:RNA) RNA: GGGAGACCGGAAUUCAGAUUGUCCGGGCUUGUUAAAUCCCGUCGUAGCCACCA DNA 1: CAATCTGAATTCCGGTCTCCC DNA 2: TGGTGGCTACGACGGGATT , please.
0.0531 KA relative to UGCAUGU
